Experiment: growth inhibition of DIPG glioma cells, dose response, cell-based, JHH-DIPG-1, MIPE4.0, CellTiter-Glo, qHTS (AID 1347062);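 on AC50: cells exposed to compound for two days before readout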
Settings: JHH-DIPG-1 viability, CellTiter-Glo ATP luminescence
Inconclusive results are not listed. Activity calls are given as the source filed them. Cut-off not given; nearly all actives show AC50 up to about 27 µM.
Returns: one label drawn from 1 (active), 0 (inactive)

Use the examples below as a reference point.
[[record]]
compound = "CC(=O)N1CCN(c2ccc(OC[C@H]3CO[C@](Cn4ccnc4)(c4ccc(Cl)cc4Cl)O3)cc2)CC1"
labelclass = 1

[[record]]
compound = "CC(C)NCC(O)c1ccc(NS(C)(=O)=O)cc1 (stereo not given)"
labelclass = 0

[[record]]
compound = "Cc1cc2c(s1)Nc1ccccc1N=C2N1CCN(C)CC1"
labelclass = 0

[[record]]
compound = "CC(Oc1ccc(O)cc1)(P(=O)(O)O)P(=O)(O)O"
labelclass = 0

[[record]]
compound = "CC(C)=CCC/C(C)=C/CC/C(C)=C/CC/C(C)=C/CC/C(C)=C/CC/C(C)=C/CC/C(C)=C/CC/C(C)=C/CC/C(C)=C/CO"
labelclass = 0

[[record]]
compound = "CCCc1nc(C(C)(C)O)c(C(=O)O)n1Cc1ccc(-c2ccccc2-c2nn[nH]n2)cc1"
labelclass = 0

[[record]]
compound = "CC(=O)SCC(Cc1ccccc1)C(=O)NCC(=O)OCc1ccccc1 (stereo not given)"
labelclass = 1

[[record]]
compound = "O=C1CN2Cc3c(ccc(Cl)c3Cl)N=C2N1"
labelclass = 0

[[record]]
compound = "O=C(O)C1CCCN(CCC=C(c2ccccc2)c2ccccc2)C1 (stereo not given)"
labelclass = 0


Then this compound:
Exercise: What is the recorded call for this compound in the test? `N#C/C(=C\c1ccc(O)c(O)c1)C(=O)NCc1ccccc1`
Solution: 0

====

Experiment: differential killing of epithelial or mesenchymal cells, primary screen, imaging, PC-3E GFP, TEM4-18 mCherry, co-culture (AID 1345086);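 further: cells exposed to compound for 72 h before imaging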
Settings: imaging cell counts, measured here: mesenchymal TEM4-18 mCherry cell survival, at 1 µM
Square brackets hold non-standard residues; d marks the D form. Peptide text beside a SMILES is read from it. Orn = NCCC[CH](N)C(=O)O
Hi there, I'd appreciate the recorded normalised cell number for every entry that follows.
One number for each entry.

Some entries whose results are on file:
[[record]]
molecule = "C#C[C@]1(O)CCC2C3CCc4cc(OC)ccc4C3CC[C@@]21C (some centres not stated)"
readouttype = "normalised cell number"
recordednumber = 1.11

[[record]]
molecule = "CC(C)(CO)[C@@H](O)C(=O)NCCC(=O)O"
readouttype = "normalised cell number"
recordednumber = 0.88

[[record]]
molecule = "COC(=O)[C@]12Oc3c(c(O)cc4c3C3C=C[C@]5(C4)C(=C(O)c4c(O)cc(C)cc4[C@@H]5OC(C)=O)C3=O)C(O)=C1C(=O)C=C[C@@H]2O"
readouttype = "normalised cell number"
recordednumber = 0.86


For each listed entry, give its normalised cell number.
1. O=C1CCC[C@@H](N2C(=S)OC[C@H]2c2ccccc2)C1
2. O=C(O)C(O)[C@H](O)[C@H](O)[C@H](O)[C@H](O)CO (some centres not stated)

Solution:
1. 1.01
2. 1.37

For each listed entry, give its normalised cell number.
1. COc1ccc(-c2cc(=O)c3c(OC)c(OC)c(OC)cc3o2)cc1OC
2. CC1CCC2(OC1)OC1CC3C4CCC5C[C@@H](O)CCC5(C)C4=CCC3(C)C1[C@@H]2C (some centres not stated)
3. CC(C)[C@H](N)C(=O)OCC(CO)OCn1cnc2c(=O)[nH]c(N)nc21 (some centres not stated)
4. O=C(O)c1ccccc1Nc1cccc(OCc2ccc3ccccc3n2)c1

Solution:
1.08
0.94
1.01
1.16

For each listed entry, give its normalised cell number.
1. C[C@@H]1OC(O[C@H]2[C@H](O)[C@@H](O)[C@H](OC[C@H]3O[C@@H](OC(=O)[C@]45CCC(C)(C)CC4C4=CCC6[C@@]7(C)CC[C@H](OC8OC[C@H](O)[C@H](O)[C@H]8OC8O[C@@H](C)[C@H](O)[C@@H](O)[C@H]8O)[C@@](C)(CO)C7CC[C@@]6(C)[C@]4(C)CC5)[C@H](O)[C@@H](O)[C@@H]3O)O[C@@H]2CO)[C@H](O)[C@H](O)[C@H]1O (some centres not stated)
2. CN1C2CCC1CC(OC(=O)c1c[nH]c3ccccc13)C2 (configuration not stated)
3. COC(=O)C1O[C@H](OC)[C@@H](OCc2ccccc2)[C@@H](OCc2ccccc2)C1O (some centres not stated)

Solution:
[0.93, 1.02, 1.15]

For each listed entry, give its normalised cell number.
1. CC1(C)CC2C1CCC1(CBr)CCC3C(CC(=O)O)C(=O)OC32C1 (configuration not stated)
2. CC(C)CC1NC(=O)C(CCCN)NC(=O)C(C(C)C)NC(=O)C2CCCN2C(=O)C(Cc2ccccc2)NC(=O)C(CC(C)C)NC(=O)C(CCCN)NC(=O)C(C(C)C)NC(=O)C2CCCN2C(=O)C(Cc2ccccc2)NC1=O (configuration not stated) (cyclo(FPV[Orn]LFPV[Orn]L); configuration not given here)
3. COc1ccc(/C=C/C(=O)c2cc(O)ccc2O)cc1
4. C[C@]12CCc3occc3C1CC[C@@]13C[C@@H](CCC12)[C@@](O)(CO)C3 (some centres not stated)
5. O=C(O)CS

Solution:
1: 1.02; 2: 0.37; 3: 1.03; 4: 1.06; 5: 1.3

Data provenance is PubChem BioAssay.
